Tested on: EKVX NSCLC
ASSAY TEXT: NCI tumour cell line growth inhibition, 48 h

[
  {
    "MOLECULE": "Cc1cc2ccc(N)nc2[nH]c1=O",
    "TGI": "> 100 µM"
  },
  {
    "MOLECULE": "COc1ccc2c(c1)CCC/C2=N\\NS(=O)(=O)c1c(C)cc(C)cc1C",
    "TGI": "98.5 µM"
  },
  {
    "MOLECULE": "Cc1csc(-n2c(C)nc3cc(Cl)ccc3c2=O)n1",
    "TGI": "81.4 µM"
  },
  {
    "MOLECULE": "O=C(CCCCCCCCC(=O)N/N=C\\c1cc(Cl)ccc1O)N/N=C\\c1cc(Cl)ccc1O",
    "TGI": "> 100 µM"
  },
  {
    "MOLECULE": "COc1ccccc1NC(=S)N/N=C/c1cccc(C)n1",
    "TGI": "> 100 µM"
  },
  {
    "MOLECULE": "CCCCCCCCCCSC(=N)N",
    "TGI": "25.3 µM"
  },
  {
    "MOLECULE": "CCOC(=O)/C=C/[C@@H](CC)O[Si](C(C)C)(C(C)C)C(C)C",
    "TGI": "> 100 µM"
  },
  {
    "MOLECULE": "CSCCCNC(=O)[C@H](CSC)NC(=O)c1csc(CCNC(=O)[C@@H](NSc2ccccc2[N+](=O)[O-])C(C)O)n1 (stereo partly drawn)",
    "TGI": "> 100 µM"
  },
  {
    "MOLECULE": "Cc1cc(Br)cc(C)c1NC(=O)C(=O)Nn1c(=S)[nH]c2ccccc2c1=O",
    "TGI": "> 100 µM"
  },
  {
    "MOLECULE": "O=P(O)(O)CN1CCNCCN(CP(=O)(O)O)CC1",
    "TGI": "> 100 µM"
  },
  {
    "MOLECULE": "COc1cc(/C=N/NC(=O)c2ccccc2Nc2cccc(C(F)(F)F)c2)cc(OC)c1OC",
    "TGI": "19.5 µM"
  },
  {
    "MOLECULE": "Cc1c(Cl)c(C)c(Cc2c(C)c(Cl)c(C)c(Cl)c2O)c(O)c1Cl",
    "TGI": "9.25 µM"
  },
  {
    "MOLECULE": "CCCCNC1=C(C(=O)OCC)/C(=N/NC(=O)c2ccccc2O)CO1",
    "TGI": "> 100 µM"
  },
  {
    "MOLECULE": "O=S(=O)(O)SCCNCCCCCC1CCCCC1",
    "TGI": "22.9 µM"
  },
  {
    "MOLECULE": "[CH3][Sn]1([CH3])[O]CC(COc2cc(Cl)c(Cl)cc2Cl)[O]1 (stereo not drawn)",
    "TGI": "> 100 µM"
  },
  {
    "MOLECULE": "CC(=O)c1sc2[n+](c1C)C(=O)/C(=C\\c1ccccc1Cl)S2",
    "TGI": "80.7 µM"
  },
  {
    "MOLECULE": "O=C1CC(c2ccccc2)S(=O)c2ccccc2N1 (stereo not drawn)",
    "TGI": "> 100 µM"
  },
  {
    "MOLECULE": "Cc1ccc(S(=NS(=O)(=O)c2ccc(C)cc2)c2ccc(C)cc2)cc1",
    "TGI": "> 100 µM"
  },
  {
    "MOLECULE": "CCOC(=O)C(C)N1C(=O)c2ccccc2S1(=O)=O (stereo not drawn)",
    "TGI": "> 100 µM"
  },
  {
    "MOLECULE": "CCOC(=O)C1=C(C)N(Cc2ccccc2)C2(O)C=CC(=O)C3=C(O)c4ccccc4C(=O)C312 (stereo not drawn)",
    "TGI": "39.6 µM"
  },
  {
    "MOLECULE": "C=C(C)[C@@H]1CC[C@]2(C(=O)NC(C)=O)CC[C@]3(C)[C@H](CC[C@@H]4[C@@]5(C)CCCNC(C)(C)[C@@H]5CC[C@]43C)[C@@H]12",
    "TGI": "3.23 µM"
  },
  {
    "MOLECULE": "O=C1/C(=C\\c2ccccc2)C2OCC=C3CN4CCC56c7ccccc7N1C5C2C3CC46 (stereo not drawn)",
    "TGI": "> 100 µM"
  },
  {
    "MOLECULE": "N#Cc1nc(/C=C/c2cccnc2)oc1N",
    "TGI": "> 100 µM"
  }
]
